- Tested on: OCI-LY3 human lymphoma cells
- Experimental details: Cell growth inhibition (cell viability assay) on IMiD-resistant human lymphoma cells OCI-LY3
- Format: cell-based
- Experimental conditions: Homo sapiens; 1 uM; OCI-LY3 cells; 48 hr treatment
Kindly supply the reported inhibition at 1 µM values for the records listed here.
Hi! Could you send only the number? It should be in %, unit omitted.

Query: Form: Entry = O=C(/C=C/c1ccc(O)c(O)c1)OC/C=C/c1ccccc1 | System = OCI-LY3 human lymphoma cells | inhibition at 1 µM = ____
Reply: -1

Query: Form: Entry = O=C(/C=C/c1ccc(O)c(O)c1)CCCc1ccccc1 | System = OCI-LY3 human lymphoma cells | inhibition at 1 µM = ____
Reply: 18.7

Query: Form: Entry = O=C(/C=C/c1ccc(O)c(O)c1)OCCc1ccc(F)cc1 | System = OCI-LY3 human lymphoma cells | inhibition at 1 µM = ____
Reply: 0.7

Query: Form: Entry = Oc1ccc(/C=C/COCCCc2ccccc2)cc1O | System = OCI-LY3 human lymphoma cells | inhibition at 1 µM = ____
Reply: 2.3

Query: Form: Entry = O=C(/C=C/c1cccc(O)c1O)OCCCc1ccccc1 | System = OCI-LY3 human lymphoma cells | inhibition at 1 µM = ____
Reply: 69

Query: Form: Entry = O=C(/C=C/c1ccc(O)cc1O)OCCCc1ccccc1 | System = OCI-LY3 human lymphoma cells | inhibition at 1 µM = ____
Reply: 3.3

Query: Form: Entry = O=C(/C=C/c1ccc(O)c(O)c1)Oc1ccccc1 | System = OCI-LY3 human lymphoma cells | inhibition at 1 µM = ____
Reply: 26.3

Query: Form: Entry = O=C(/C=C/c1ccc(O)c(O)c1)NCCCc1ccccc1 | System = OCI-LY3 human lymphoma cells | inhibition at 1 µM = ____
Reply: -9.5

Query: Form: Entry = O=C(/C=C/c1ccc(O)c(O)c1)OCc1ccccc1 | System = OCI-LY3 human lymphoma cells | inhibition at 1 µM = ____
Reply: 10.5

Query: Form: Entry = O=C(/C=C/c1ccc(O)c(O)c1)OCCCCc1ccccc1 | System = OCI-LY3 human lymphoma cells | inhibition at 1 µM = ____
Reply: -9.3

Query: Form: Entry = O=C(/C=C/c1cc(O)ccc1O)OCCCc1ccccc1 | System = OCI-LY3 human lymphoma cells | inhibition at 1 µM = ____
Reply: 26.6

Query: Form: Entry = COc1cc(/C=C/C(=O)OCCCc2ccccc2)ccc1O | System = OCI-LY3 human lymphoma cells | inhibition at 1 µM = ____
Reply: -0.7

Query: Form: Entry = O=C(/C=C/c1ccc(O)c(O)c1)OCCc1ccccc1 [CAPE, reference compound] | System = OCI-LY3 human lymphoma cells | inhibition at 1 µM = ____
Reply: -24.3

Query: Form: Entry = O=C(/C=C/c1ccc(O)c(O)c1)OCCCc1ccccc1 [GL8, caffeic acid phenpropyl ester, reference compound] | System = OCI-LY3 human lymphoma cells | inhibition at 1 µM = ____
Reply: -4.6

Query: Form: Entry = O=C(/C=C/c1ccc(O)c(O)c1)OCC#Cc1ccccc1 | System = OCI-LY3 human lymphoma cells | inhibition at 1 µM = ____
Reply: 0.3

Query: Form: Entry = Cc1ccc(CCOC(=O)/C=C/c2ccc(O)c(O)c2)cc1 | System = OCI-LY3 human lymphoma cells | inhibition at 1 µM = ____
Reply: 10

Query: Form: Entry = COc1cc(/C=C/C(=O)OCCCc2ccccc2)cc(OC)c1O | System = OCI-LY3 human lymphoma cells | inhibition at 1 µM = ____
Reply: -4.9

Query: Form: Entry = COc1cc(/C=C/C(=O)OCCc2ccccc2)ccc1O | System = OCI-LY3 human lymphoma cells | inhibition at 1 µM = ____
Reply: -1

Query: Form: Entry = COc1cc(/C=C/C(=O)OCCc2ccccc2)cc(OC)c1O | System = OCI-LY3 human lymphoma cells | inhibition at 1 µM = ____
Reply: 3.1
